- METHOD: AUCt in ICR mouse at 5 mg/kg, iv by LC-MS/MS analysis
- Type: ADME, organism-based
- Design: dose 5 mg/kg
- RECORDED_CONDITIONS: in vivo
VALUE_KIND: AUC(0-t) (ng·h/mL)

Worked examples, 2 compounds total:
INSERT INTO measurements (compound, value_kind, reported) VALUES
  ('CC1(C)[C@H](NC(=O)c2ccc(N3CCN(CC4CCN(C(=O)C5CN(c6ccc7nnn(C8CCC(=O)NC8=O)c(=O)c7c6)C5)CC4)CC3)cc2)C(C)(C)[C@H]1Oc1ccc(C#N)c(Cl)c1 (some centres undefined)', 'AUC(0-t)', 24100),
  ('CC1(C)[C@H](NC(=O)c2ccc(N3CCN(CCOC4CCN(c5ccc6nnn(C7CCC(=O)NC7=O)c(=O)c6c5)CC4)CC3)cc2)C(C)(C)[C@H]1Oc1ccc(C#N)c(Cl)c1 (some centres undefined)', 'AUC(0-t)', 14300);

[A] CC1(C)[C@H](NC(=O)c2ccc(N3CCN(C4CC5(CCN(C(=O)C6CCN(c7ccc8nnn(C9CCC(=O)NC9=O)c(=O)c8c7)CC6)CC5)C4)CC3)cc2)C(C)(C)[C@H]1Oc1ccc(C#N)c(Cl)c1 (some centres undefined)
[B] CC1(C)[C@H](NC(=O)c2ccc(N3CCN(CCOC4CCN(C(=O)C5CN(c6ccc7nnn(C8CCC(=O)NC8=O)c(=O)c7c6)C5)CC4)CC3)cc2)C(C)(C)[C@H]1Oc1ccc(C#N)c(Cl)c1 (some centres undefined)
Request: Pick one: A or B . Which one has the lower reported AUC(0-t)? Reply with the label of the item you choose.
Response: B
(B: 4490 ng·h/mL, A: 20700 ng·h/mL)
